system.under.test: PKCα(h) (Homo sapiens, UniProt P17252)
assay.method.text: Protein kinase selectivity panel
Assay type: biochemical
measurement.conditions: 1.0 μM compound, 10 μM ATP
quantity: Activity at Protein Kinase Assays (% of control), PKCα(h)

Query: Return Activity at Protein Kinase Assays (% of control), PKCα(h) (reported value) for this compound: CN(C)c1cc2cc(n1)CCCn1cc(c3ccccc31)C1=C(C(=O)NC1=O)c1cn(c3ccccc13)CCC2
Result: 74 % of control

Query: Note down Activity at Protein Kinase Assays (% of control), PKCα(h) recorded for CN(C)c1nc2ccc1CCCCn1cc(c3ccccc31)C1=C(C(=O)NC1=O)c1cn(c3ccccc13)CCC2
Result: 68 % of control

Query: Return the recorded Activity at Protein Kinase Assays (% of control), PKCα(h) value; entry: O=C1NC(=O)C2=C1c1cn(c3ccccc13)CCCc1cc(nc(N3CCCC3)c1)CCCn1cc2c2ccccc21
Result: 82 % of control

Query: Specify measured Activity at Protein Kinase Assays (% of control), PKCα(h) for O=C1NC(=O)C2=C1c1cn(c3ccccc13)CCCc1ccc(c(N3CCCC3)n1)CCCn1cc2c2ccccc21 .
Result: 83 % of control
